In this section we review reported log10 LC retention time values for a set of compounds.
PROTOCOL: RP, Waters XBridge C18, 50 × 2.1 mm, 3.5 µm, 30 °C, 0.2 mL/min, estimated dead time 0.55 min; A: water + 0.1% formic acid, pH 3; B: methanol + 0.1% formic acid, pH 3; gradient (min/%B) 0/10 4/50 17/95 25/95 25.1/10 30/10
APPLIED CONDITIONS: stereoisomer not certain
OBSERVATION TYPE: log10 LC retention time (log10 of the value in min)

1) CN(C)CC(c1ccc(O)cc1)C1(O)CCCCC1 (configuration not stated) [O-desmethylvenlafaxine] = 0.68
2) COC(=O)C1C(OC(=O)c2ccccc2)CC2CCC1N2C (configuration not stated) [Cocaine] = 0.70
3) O=C(Nc1ccccc1-c1ccc(Cl)cc1)c1cccnc1Cl [Boscalid] = 1.02
4) O=C(O)C(F)(F)C(F)(F)C(F)(F)C(F)(F)C(F)(F)C(F)(F)C(F)(F)C(F)(F)C(F)(F)F [Perfluorodecanoic acid] = 1.18
5) O=C(O)Cc1ccccc1Nc1c(Cl)cccc1Cl [Diclofenac] = 1.11
6) O=C1NS(=O)(=O)c2ccccc21 [Saccharin] = 0.40
7) COC(=O)Nc1cccc(OC(=O)Nc2cccc(C)c2)c1 [Phenmedipham] = 0.98
8) Cc1ccc(N=CN(C)C=Nc2ccc(C)cc2C)c(C)c1 [Amitraz] = 1.19
9) CCC(C)n1c(=O)[nH]c(C)c(Br)c1=O (configuration not stated) [Bromacil] = 0.85
10) OCc1cccc(Oc2ccccc2)c1 [3-Phenoxybenzylalcohol] = 0.99
11) O=C(O)COc1nc(Cl)c(Cl)cc1Cl [Triclopyr] = 1.01
12) CC(O)(CS(=O)(=O)c1ccc(F)cc1)C(=O)Nc1ccc(C#N)c(C(F)(F)F)c1 (configuration not stated) [Bicalutamide] = 1.00
13) O=C(O)c1cccc(Oc2ccccc2)c1 [3-Phenoxybenzoic acid] = 1.06
14) CC(=O)N(C)N(C(=O)C(=O)N(C)C)c1ccccc1 [Dioxoaminopyrine] = 0.72
15) CCCC(C)C1(CC)C(=O)NC(=S)NC1=O (configuration not stated) [Thiopental] = 0.95
16) Cc1ccc(NC(=O)N(C)C)cc1Cl [Chlortoluron] = 0.91
17) CCOCCN(C(=O)CCl)C(=C(C)C)c1ccccc1 [Pethoxamide] = 1.06
18) NC(=O)N1c2ccccc2C=Cc2ccccc21 [Carbamazepine] = 0.89
19) CC(N)Cc1ccccc1 (configuration not stated) [Amphetamine] = 0.54
20) COc1cc(NS(=O)(=O)c2ccc(N)cc2)nc(OC)n1 [Sulfadimethoxine] = 0.76
21) CCCCC1=NC2(CCCC2)C(=O)N1Cc1ccc(-c2ccccc2-c2nn[nH]n2)cc1 [Irbesartan] = 0.96
22) CCNc1nc(NC(C)(C)C)[nH]c(=O)n1 [Terbutylazine-2-hydroxy] = 0.75
23) CCN(CC)C(=O)SCc1ccccc1Cl [Orbencarb] = 1.12
24) CCNS(=O)(=O)C(F)(F)C(F)(F)C(F)(F)C(F)(F)C(F)(F)C(F)(F)C(F)(F)C(F)(F)F [N-Ethylperfluoroctansulfonamid (N-EtFOSA)] = 1.23
25) CC(=O)Nc1ccc(S(=O)(=O)Nc2nccs2)cc1 [N4-Acetylsulfathiazole] = 0.61
26) COCC(=O)N(c1c(C)cccc1C)C(C)C(=O)OC (configuration not stated) [Metalaxyl] = 0.94
27) COCC(C)N(C(=O)CS(=O)(=O)O)c1c(C)csc1C (configuration not stated) [Dimethenamide ESA] = 0.83
28) CN(C)C(=N)N=C(N)N [Metformin] = -0.10
29) CCNc1nc(Cl)nc(NC(C)(C)C#N)n1 [Cyanazine] = 0.82
30) CC(C)c1nc(CN(C)C(=O)NC(C(=O)NC(Cc2ccccc2)CC(O)C(Cc2ccccc2)NC(=O)OCc2cncs2)C(C)C)cs1 (configuration not stated) [Ritonavir] = 1.13
31) CN(C)CCCC1(c2ccc(F)cc2)OCc2cc(C#N)ccc21 (configuration not stated) [Citalopram] = 0.82
32) CN1COCN(Cc2cnc(Cl)s2)C1=N[N+](=O)[O-] [Thiamethoxam] = 0.61
33) COc1ccc2c(c1)c(CC(=O)O)c(C)n2C(=O)c1ccc(Cl)cc1 [Indomethacin] = 1.11
34) COc1cccc(C2(O)CCCCC2CN(C)C)c1 (configuration not stated) [Tramadol] = 0.69
35) CC(=O)Nc1c(I)c(NC(C)=O)c(I)c(C(=O)O)c1I [Diatrizoate] = 0.20
36) COc1nc(NC(C)C)nc(NC(C)C)n1 [Prometon] = 0.83
37) CC(C)N(Cc1ccccc1)C(=O)C(C)(C)C [Tebutam] = 1.07
